Assay Overview: Solubility of the compound in Tween 80 solution
Assay type: physicochemical
Measurement Type: solubility (µg/mL)

>  <Compound>
CCc1c2c(nc3ccc(O)cc13)-c1cc3c(c(=O)n1C2)COC(=O)[C@]3(O)CC [7-ETHYL-10-HYDROXYCAMPTOTHECIN]

>  <Value Units>
µg/mL

>  <Readout Value>
77.4

$$$$

----------
Listing of recorded pIC50 by entry.
Assay Overview: Cytotoxicity against HEK293T cells assessed as inhibition of cell growth by MTT assay
Assay type: toxicity, cell-based, HEK-293T
Experimental Parameters: human
pIC50: −log10 of the molar value.
Measurement Type: pIC50

>  <Cpd Smiles>
CCc1c2c(nc3ccc(OC(=O)NCCOCc4cn(CCO[C@H]5O[C@@H](CO)[C@H](O)[C@@H](O)[C@@H]5O)nn4)cc13)-c1cc3c(c(=O)n1C2)COC(=O)[C@]3(O)CC

>  <Measurement Type>
pIC50

>  <Readout Value>
4.70

$$$$
>  <Cpd Smiles>
CCc1c2c(nc3ccc(OC(=O)N4CCC(N5CCCCC5)CC4)cc13)-c1cc3c(c(=O)n1C2)COC(=O)[C@]3(O)CC

>  <Measurement Type>
pIC50

>  <Readout Value>
4.70

$$$$

Hey, just so you know, these numbers are from ChEMBL document CHEMBL5236668.
